Cited source for all entries: patent US20220112288A1

Target: T1, human CD4 on cells (SKW3 cells; human PBMCs) (human, UniProt P01730 26-458)
T1 construct: whole, on cells; SKW3 CD4 knockout cells served as the negative cell line in the primary screen; also called hCD4; huCD4
Experiment: FACS binning on SKW3 cells; competitor OKT4-A488; background 2163, max binding 8200
observable: OKT4-A488 signal with supernatant

binder="75110_10O16A (antibody, V domains shown, Tested as non-clonal AlivaMab Mouse Kappa hybridoma supernatant (detected with anti-mouse Fc gamma and anti-human kappa); also called 75110_10016A) VH: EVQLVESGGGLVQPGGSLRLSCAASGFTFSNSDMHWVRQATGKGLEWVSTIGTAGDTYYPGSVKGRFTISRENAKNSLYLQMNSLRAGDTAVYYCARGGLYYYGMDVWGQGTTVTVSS VL: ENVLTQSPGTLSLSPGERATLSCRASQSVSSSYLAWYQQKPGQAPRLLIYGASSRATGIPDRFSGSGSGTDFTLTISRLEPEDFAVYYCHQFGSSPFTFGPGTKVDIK" observable="OKT4-A488 signal with supernatant" reported_measurement=8260
binder="75110_08K12A (antibody, V domains shown, Tested as non-clonal AlivaMab Mouse Kappa hybridoma supernatant (detected with anti-mouse Fc gamma and anti-human kappa)) VH: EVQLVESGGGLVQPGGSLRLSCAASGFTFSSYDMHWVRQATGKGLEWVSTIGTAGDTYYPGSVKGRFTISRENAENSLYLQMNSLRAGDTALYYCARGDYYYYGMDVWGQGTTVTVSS VL: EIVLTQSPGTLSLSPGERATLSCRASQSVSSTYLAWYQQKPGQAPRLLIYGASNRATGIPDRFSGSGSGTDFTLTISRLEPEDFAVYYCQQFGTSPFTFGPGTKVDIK" observable="OKT4-A488 signal with supernatant" reported_measurement=8660
binder="75110_14N19A (antibody, V domains shown, Tested as non-clonal AlivaMab Mouse Kappa hybridoma supernatant (detected with anti-mouse Fc gamma and anti-human kappa)) VH: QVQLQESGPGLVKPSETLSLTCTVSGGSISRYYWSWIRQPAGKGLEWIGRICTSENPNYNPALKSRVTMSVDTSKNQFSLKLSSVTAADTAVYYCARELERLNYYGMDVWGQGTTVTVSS VL: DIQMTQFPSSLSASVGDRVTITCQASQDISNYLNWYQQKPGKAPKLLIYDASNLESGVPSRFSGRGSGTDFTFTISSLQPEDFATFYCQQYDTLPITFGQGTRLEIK" observable="OKT4-A488 signal with supernatant" reported_measurement=9080
binder="75110_02N15A (antibody, V domains shown, Tested as non-clonal AlivaMab Mouse Kappa hybridoma supernatant (detected with anti-mouse Fc gamma and anti-human kappa)) VH: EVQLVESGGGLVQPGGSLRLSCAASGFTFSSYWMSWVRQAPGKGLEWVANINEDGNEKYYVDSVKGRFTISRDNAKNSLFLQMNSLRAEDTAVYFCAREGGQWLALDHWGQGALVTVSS VL: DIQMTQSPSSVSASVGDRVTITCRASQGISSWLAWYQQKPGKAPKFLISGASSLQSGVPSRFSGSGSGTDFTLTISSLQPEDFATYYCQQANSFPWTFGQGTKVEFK" observable="OKT4-A488 signal with supernatant" reported_measurement=3020
